# System: Caspase-6 (Homo sapiens, UniProt P55212)
# Sequence (P55212 whole entry): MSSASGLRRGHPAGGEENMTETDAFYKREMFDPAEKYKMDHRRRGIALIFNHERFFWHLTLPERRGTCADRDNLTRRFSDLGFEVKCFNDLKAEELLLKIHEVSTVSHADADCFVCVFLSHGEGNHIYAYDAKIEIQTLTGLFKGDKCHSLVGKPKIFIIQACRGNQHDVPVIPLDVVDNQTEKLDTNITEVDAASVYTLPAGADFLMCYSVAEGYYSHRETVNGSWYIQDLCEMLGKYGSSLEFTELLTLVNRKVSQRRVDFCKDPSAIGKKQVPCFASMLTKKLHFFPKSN
# Assay explanation: inhibition of CASP6 peptide cleavage – biochemical, VEID-R110 fluorescence, cherry-pick, dose response (AID 720632)
Activity calls are given as the source filed them. No rule for the calls is given here.
AC50: recorded values

# example entries with known answers
Smiles input	AC50
O=C1CN(C(=O)COC(=O)c2ccc([N+](=O)[O-])o2)c2ccccc2N1	15.1 µM (active)
Nc1nc(-c2ccccc2)nc(O)c1N=O	11.6 µM (active)
Cc1cc(C)cc(NC(=O)Cc2ccc(S(=O)(=O)N3CCCC3)s2)c1	24.2 µM (active)

Any idea what its AC50 is? The compound is Nc1cc([N+](=O)[O-])ccc1N1C(=O)CCCC1=O
18.3 µM (active)
